- ASSAYED_TARGET: transketolase (TK) (Zea mays, UniProt Q7SIC9)
- Sequence (Q7SIC9 1-675): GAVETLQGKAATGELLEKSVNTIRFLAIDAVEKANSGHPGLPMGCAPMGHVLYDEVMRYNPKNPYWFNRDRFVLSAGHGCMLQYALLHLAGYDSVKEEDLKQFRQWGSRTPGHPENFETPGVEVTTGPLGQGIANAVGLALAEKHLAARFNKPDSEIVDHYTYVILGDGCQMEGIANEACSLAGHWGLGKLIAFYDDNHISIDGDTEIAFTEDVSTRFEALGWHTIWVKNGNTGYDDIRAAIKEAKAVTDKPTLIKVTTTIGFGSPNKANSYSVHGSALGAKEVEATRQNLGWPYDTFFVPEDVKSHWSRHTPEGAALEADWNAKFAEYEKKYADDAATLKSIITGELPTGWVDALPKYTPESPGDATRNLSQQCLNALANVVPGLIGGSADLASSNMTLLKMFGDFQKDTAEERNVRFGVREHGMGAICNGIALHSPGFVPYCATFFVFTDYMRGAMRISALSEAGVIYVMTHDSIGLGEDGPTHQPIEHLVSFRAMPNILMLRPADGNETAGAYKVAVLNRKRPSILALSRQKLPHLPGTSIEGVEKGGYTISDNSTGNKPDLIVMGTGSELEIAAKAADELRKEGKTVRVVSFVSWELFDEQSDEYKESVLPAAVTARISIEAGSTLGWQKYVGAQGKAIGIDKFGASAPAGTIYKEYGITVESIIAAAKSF
pIC50: −log10 of the molar value.
OBSERVED_PROPERTY: pIC50

>  <COMPOUND>
C/C=C1/CC2=C(C(=O)OC2=O)[C@H](CCC)[C@H](O)C(=O)C[C@@H]1O [compound 6, cornexistin]

>  <ASSAY_RESULT>
4.30

$$$$
